System: barnyardgrass (Echinochloa crus-galli, ECHCG)
assay.explanation: Pre-emerge test, greenhouse herbicide activity screening
Type: in vivo
assay.context: pre-emerge, rate 63 g ai/ha, phytotoxicity rating 0-100 at 14 days after application
reported.metric: Pre-emerge Herbicidal Activity ECHCG
Answers are plain numbers.

smiles | experimental.target | obs.value
Cc1c(Cl)cc(F)c(-n2c(=O)cc(C(F)(F)F)n(C)c2=O)c1NC(=O)SCc1ccccc1 | barnyardgrass (Echinochloa crus-galli, ECHCG) | 30
Nc1c(OC2CCCC2)c(Cl)cc(F)c1N1C(=O)C2=C(CCCC2)C1=O | barnyardgrass (Echinochloa crus-galli, ECHCG) | 0
COc1c(Cl)cc(F)c(-n2c(=O)n3n(c2=O)CCCC3)c1N | barnyardgrass (Echinochloa crus-galli, ECHCG) | 0
C=Cc1ccc(C(=O)Nc2c(OC)c(Cl)cc(F)c2N2C(=O)C3=C(CCCC3)C2=O)cc1 | barnyardgrass (Echinochloa crus-galli, ECHCG) | 0

Query: Given `O=C(Nc1cc(Cl)ccc1-n1c(=O)n2n(c1=O)CCCC2)c1ccc2ccccc2c1` , state its recorded Pre-emerge Herbicidal Activity ECHCG.
Result: 0

###

Tested on: johnsongrass (Sorghum halepense, SORHA)
assay.explanation: Post-emerge test, greenhouse herbicide activity screening
Format: in vivo
assay.context: 63 g ai/ha; post-emerge; 14 days after application; rating scale 0-100
reported.metric: Post-emerge Herbicidal Activity SORHA (phytotoxicity rating)
One number for each entry.

Examples with answers:
smiles | experimental.target | obs.value
COc1c(Cl)cc(F)c(-n2c(=O)cc(C(F)(F)F)n(C)c2=O)c1NN=CCc1ccccc1 | johnsongrass (Sorghum halepense, SORHA) | 30
Cn1c(C(F)(F)F)cc(=O)n(-c2ccc(Cl)cc2/C=C/c2ccc3ccccc3c2)c1=O | johnsongrass (Sorghum halepense, SORHA) | 0
COc1c(Cl)cc(F)c(-n2c(=O)cc(C(F)(F)F)n(C)c2=O)c1NN=CC1CC1 | johnsongrass (Sorghum halepense, SORHA) | 50

Now take the following compound into account.
Query: Given `COc1c(Cl)cc(F)c(-n2c(=O)cc(C(F)(F)F)n(C)c2=O)c1OC(=O)c1ccc2ccccc2c1` , state its recorded Post-emerge Herbicidal Activity SORHA (phytotoxicity rating).
Result: 0

###

System: field corn (Zea mays L., var. Dekalb 535, CORN)
assay.explanation: Post-emerge test, crop safety
Type: in vivo
assay.context: post-emerge, 63 g ai/ha, crop damage rating 0-100 at 14 days after application
For each record, write down the corresponding Post-emerge Herbicidal Activity CORN.
One number for each entry.

Examples with answers:
compound | Post-emerge Herbicidal Activity CORN
COc1ccc(COC(=O)Nc2c(C)c(Cl)cc(F)c2-n2c(=O)cc(C(F)(F)F)n(C)c2=O)cc1OC [4-63] | 10
COc1c(Cl)cc(F)c(N2C(=O)C3CCCCN3C2=S)c1NC(=O)c1ccc2ccccc2c1 (stereo not drawn) [12-5] | 25

Now take the following compound into account.
Query: Given COc1c(Cl)cc(F)c(-n2c(=O)n3n(c2=O)CCCC3)c1NC(=O)c1ccc2ccccc2c1 [9-15] , state its recorded Post-emerge Herbicidal Activity CORN.
Result: 5

###

For each record, write down the corresponding phytotoxicity rating RICE (crop damage).
Test system: upland rice (Oryza sp., var. Tebonnet, RICE)
assay.explanation: Post-emerge test, crop safety
Format: in vivo
assay.context: post-emerge, 250 g ai/ha, 14 days after application, rating scale 0-100
Experimental: A standard greenhouse herbicide activity screening system was used to evaluate the herbicidal efficacy and crop safety of these test compounds. […] At 14 days after application of the test materials, phytotoxicity ratings were recorded. […]
Answers are plain numbers.

Examples with answers:
smiles | experimental.target | phytotoxicity rating RICE (crop damage)
COc1c(Cl)cc(F)c(-n2c(=O)cc(C(F)(F)F)n(C)c2=O)c1NC(=O)OCc1c(F)cccc1F | upland rice (Oryza sp., var. Tebonnet, RICE) | 85
Cc1c(Cl)cc(F)c(-n2c(=O)cc(C(F)(F)F)n(C)c2=O)c1NC(=O)OCc1ccccc1Cl | upland rice (Oryza sp., var. Tebonnet, RICE) | 100
CCCCCC(=O)Nc1c(OC)c(Cl)cc(F)c1-n1c(=O)cc(C(F)(F)F)n(C)c1=O | upland rice (Oryza sp., var. Tebonnet, RICE) | 30

Query: Given `COc1c(Cl)cc(F)c(-n2c(=O)cc(C(F)(F)F)n(C)c2=O)c1NC(=O)OCc1ccc2ccccc2c1` , state its recorded phytotoxicity rating RICE (crop damage).
Result: 15

###

Test system: barnyardgrass (Echinochloa crus-galli, ECHCG)
assay.explanation: Pre-emerge test, greenhouse herbicide activity screening
Format: in vivo
assay.context: pre-emerge, rate 250 g ai/ha, phytotoxicity rating 0-100 at 14 days after application
reported.metric: Pre-emerge Herbicidal Activity ECHCG

Dear reader, for each entry below, please note its Pre-emerge Herbicidal Activity ECHCG.
1. COc1ccc(COC(=O)Nc2c(C)c(Cl)cc(F)c2-n2c(=O)cc(C(F)(F)F)n(C)c2=O)cc1OC [4-63]
2. CCC(=O)Nc1c(Cl)cc(Cl)c(-n2nc(C)n(C(F)F)c2=O)c1N [Compound 6-19]
3. Cc1cccc(COC(=O)Nc2c(C)c(Cl)cc(F)c2-n2c(=O)cc(C(F)(F)F)n(C)c2=O)c1 [4-68]
4. O=C(Nc1cc(Cl)ccc1-n1c(=O)n2n(c1=S)CCCC2)c1ccc2ccccc2c1 [9-14]

Result:
1. 70
2. 0
3. 98
4. 40

###

Tested on: field corn (Zea mays L., var. Dekalb 535, CORN)
assay.explanation: Pre-emerge test, crop safety
Assay type: in vivo
assay.context: pre-emerge, 63 g ai/ha, 14 days after application, scale 0-100
For each record, write down the corresponding phytotoxicity rating CORN (crop damage).
Give bare numbers.

compound | phytotoxicity rating CORN (crop damage)
COc1c(Cl)cc(Cl)c(-n2c(=O)cc(C(F)(F)F)n(C)c2=O)c1NC(=O)c1ccc2ccccc2c1 | 0
COc1c(Cl)cc(F)c(-n2c(=O)cc(C(F)(F)F)n(C)c2=O)c1NC(=O)CSc1ccc2ccccc2c1 | 0
CCOC(=O)C(C)Oc1ccc(-n2c(=O)cc(C(F)(F)F)n(C)c2=O)c(NC(=O)c2ccc3ccccc3c2)c1 (stereo not drawn) | 0
COc1c(C#N)cc(F)c(-n2c(=O)cc(C(F)(F)F)n(C)c2=O)c1NC(=O)c1ccc2ccccc2c1 [2-180] | 0

Dear reader, for each entry below, please note its phytotoxicity rating CORN (crop damage).
1. COc1c(Cl)cc(F)c(-n2c(=O)cc(C(F)(F)F)n(C)c2=O)c1NC(=O)CCc1cc(C)ccc1C [2-132]
2. COc1c(C#N)cc(F)c(-n2c(=O)cc(C(F)(F)F)n(C)c2=O)c1NC(=O)c1ccc2ccccc2c1 [2-181]
3. COc1c(Br)cc(F)c(-n2c(=O)cc(C(F)(F)F)n(C)c2=O)c1NC(=O)C=Cc1ccccc1 [2-177]
4. COc1c(Cl)cc(F)c(-n2c(=O)cc(C(F)(F)F)n(C)c2=O)c1NC(=O)c1ccc2c(C#N)cccc2c1
5. COc1c(Cl)cc(F)c(-n2c(=O)cc(C(F)(F)F)n(C)c2=O)c1NC(=O)C=Cc1cccc(Cl)c1

Result:
1: 5; 2: 0; 3: 0; 4: 0; 5: 0

Dear reader, for each entry below, please note its phytotoxicity rating CORN (crop damage).
1. COc1c(Br)cc(F)c(-n2c(=O)cc(C(F)(F)F)n(C)c2=O)c1N(C(=O)C=Cc1ccccc1)C(=O)C=Cc1ccccc1 [2-176]
2. COc1c(Cl)cc(F)c(-n2c(=O)cc(C(F)(F)F)n(C)c2=O)c1NC(=O)c1ccc2c(Br)cccc2c1

Result:
0
0

Dear reader, for each entry below, please note its phytotoxicity rating CORN (crop damage).
1. COc1c(Br)cc(F)c(-n2c(=O)cc(C(F)(F)F)n(C)c2=O)c1N(C(=O)C=Cc1ccccc1)C(=O)C=Cc1ccccc1 [2-178]
2. Cn1c(C(F)(F)F)cc(=O)n(-c2ccc(Cl)cc2NC(=O)C=Cc2ccccc2)c1=O
3. COc1c(Cl)cc(F)c(-n2c(=O)cc(C(F)(F)F)n(C)c2=O)c1NC(=O)CSC
4. COc1c(C#N)cc(F)c(-n2c(=O)cc(C(F)(F)F)n(C)c2=O)c1NC(=O)C=Cc1ccccc1

Result:
[0, 0, 0, 0]

###

Test system: upland rice (Oryza sp., var. Tebonnet, RICE)
assay.explanation: Pre-emerge test, crop safety
Assay type: in vivo
assay.context: pre-emerge, 250 g ai/ha, 14 days after application, rating scale 0-100
reported.metric: phytotoxicity rating RICE
One number for each entry.

Dear reader, for each entry below, please note its phytotoxicity rating RICE.
1. CCOC(=O)C(Cl)Cc1c(OCC)c(Cl)cc(F)c1-n1c(=O)cc(C(F)(F)F)n(C)c1=O (centres unmarked) [14-64]
2. CCOc1c(Cl)cc(F)c(-n2c(=O)cc(C(F)(F)F)n(C)c2=O)c1Cl
3. COc1c(Cl)cc(F)c(-n2c(=O)cc(C(F)(F)F)n(C)c2=O)c1NNC(=O)Oc1ccccc1

Result:
1. 10
2. 15
3. 100

Dear reader, for each entry below, please note its phytotoxicity rating RICE.
1. COc1c(Cl)cc(F)c(-n2c(=O)cc(C(F)(F)F)n(C)c2=O)c1SCCO
2. CCOC(=O)C(Cl)Cc1c(OCC)c(Cl)cc(F)c1-n1c(=O)cc(C(F)(F)F)n(C)c1=O (centres unmarked) [14-63]
3. COc1c(Cl)cc(F)c(-n2c(=O)cc(C(F)(F)F)n(C)c2=O)c1SC(C)C
4. COc1c(Cl)cc(F)c(-n2c(=O)cc(C(F)(F)F)n(C)c2=O)c1Sc1ccc2ccccc2c1
5. Cn1c(C(F)(F)F)cc(=O)n(-c2ccc(Cl)cc2/C=C/c2ccc3ccccc3c2)c1=O

Result:
[10, 0, 0, 10, 0]

Dear reader, for each entry below, please note its phytotoxicity rating RICE.
1. COc1c(Cl)cc(F)c(-n2c(=O)cc(C(F)(F)F)n(C)c2=O)c1NNC(=O)c1ccc(F)cc1F
2. COc1c(Cl)cc(F)c(-n2c(=O)cc(C(F)(F)F)n(C)c2=O)c1NN=CCCSC

Result:
[100, 100]

Dear reader, for each entry below, please note its phytotoxicity rating RICE.
1. COc1c(Cl)cc(F)c(-n2c(=O)cc(C(F)(F)F)n(C)c2=O)c1NNC(=O)c1ccccc1
2. CCCOC(=O)C(Cl)Cc1c(OCC)c(Cl)cc(F)c1-n1c(=O)cc(C(F)(F)F)n(C)c1=O (centres unmarked) [14-65]

Result:
[100, 0]

Dear reader, for each entry below, please note its phytotoxicity rating RICE.
1. CCOC(=O)C(Cl)Cc1cc(Cl)cc(F)c1-n1c(=O)cc(C(F)(F)F)n(C)c1=O (centres unmarked)
2. COc1c(Cl)cc(F)c(-n2c(=O)cc(C(F)(F)F)n(C)c2=O)c1NNC(=O)C1CC1
3. COc1c(Cl)cc(F)c(-n2c(=O)cc(C(F)(F)F)n(C)c2=O)c1NN=Cc1ccc2ccccc2c1
4. COc1c(Cl)cc(F)c(-n2c(=O)cc(C(F)(F)F)n(C)c2=O)c1NN=CCc1ccccc1

Result:
[20, 100, 99, 100]

Query: Given `COc1c(Cl)cc(F)c(-n2c(=O)cc(C(F)(F)F)n(C)c2=O)c1NNC(=O)Nc1ccc(F)cc1F` , state its recorded phytotoxicity rating RICE.
Result: 90
